Numbers sourced from patent US20260216242A1.

System: T1, human ALPPL2 on CHO cells (human, UniProt P10696 20-503)
T1 construct: whole, on cells; also called CHO-ALPPL2
T1 sequence (P10696 20-503): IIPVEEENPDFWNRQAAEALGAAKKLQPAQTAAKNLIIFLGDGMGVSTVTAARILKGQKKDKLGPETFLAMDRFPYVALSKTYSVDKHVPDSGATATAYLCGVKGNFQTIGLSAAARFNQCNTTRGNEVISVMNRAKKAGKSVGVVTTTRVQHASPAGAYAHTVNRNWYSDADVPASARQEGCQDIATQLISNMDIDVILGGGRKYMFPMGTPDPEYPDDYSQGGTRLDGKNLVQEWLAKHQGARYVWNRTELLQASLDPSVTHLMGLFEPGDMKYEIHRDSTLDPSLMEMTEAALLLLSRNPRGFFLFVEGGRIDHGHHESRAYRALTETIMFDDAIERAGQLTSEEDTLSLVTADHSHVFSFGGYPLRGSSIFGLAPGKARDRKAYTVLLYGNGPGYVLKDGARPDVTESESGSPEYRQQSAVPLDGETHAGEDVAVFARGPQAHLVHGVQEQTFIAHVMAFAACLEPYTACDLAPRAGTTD
Method summary: flow cytometry, CHO cells, KDapp
Assay endpoint: Kd (nM)
Numbers only, in nM.

Below are worked cases with known answers.
F08 His (VHH, not shown: small tags and cut ends, also called #269) VHH: QVQLVESGGGSVQAGGSLRLSCAASGPSLSNYAMGWFRQAPGKEREFVAGISWGGGRTSYTDSVKGRFTISRDNAKNTVYLQMNNLKPEDTGVYYCAGRYGRGRNVEYEYDYWGQGTQVTVSS ... 3.3
A05 His (VHH, not shown: small tags and cut ends, also called #249) VHH: QVQLVESGGGLVQAGASLTLSCAASGFTFNTRSIVWFRQAPGKEREAVSCISKVAGSTYYGDSVQGRFSSSTDNAKNTVSLQMNSLKPEDTAVYTCAASFAPNCYGWSVAANMEYWGEGTMVTVSS ... 6
E10 His (VHH, not shown: small tags and cut ends, also called #265) VHH: QVQLVESGGGLVQAGGSLRLSCAVSGRALSDYNIGWFRQAPGKEREFVARKTWDGSSTRYDDSVKGRFTVSIEDAKNTAYLQMSSLKTEDTAVYYCAAGRYSRARGWEYDYWGQGTQVTVSS ... 3.8
C07 His (VHH, not shown: small tags and cut ends, also called #258) VHH: QVQLVESGGGLVQAGESLRLACAASGTIFSGNAVGWYRQAPEKQREWVSSITDYGDTDYAEAVKGRFTISRDNAKNTVYLQMNSLKPEDTAVYYCYVYQRGESEEYWGQGTQVTVSS ... 5.1
F05 His (VHH, not shown: small tags and cut ends) VHH: QVQLVESGGGLVQAGGSLRLSCAASGRAFGDYNIGWFRQAPGKEREFVARRTWDGSSTRYDDSVKGRFTVSIDNAKNTAYLQMNSLKTEDTAVYYCAAGRYSRVRGWEYDYWGQGTQVTVSS ... 1.8
A06 His (VHH, not shown: small tags and cut ends, also called #250) VHH: QVHLVESGGGLVQAGGSLRLSCAASGRTFLSMGWFRQAPGKEREFVAAISWTGGSTGYADSVKGRFTISRESDKETMYLQMNSLKPEDTAVYYCAARGDVYYGGDDATRYKYWGQGTQVTVSS ... 28.3
D04 His (VHH, not shown: small tags and cut ends) VHH: QVQLVESGGGLVQPGGSLRLSCAASESTFSINVMGWYRQAPGKQRELVATITSGDITNYADSVKGRFTISRDNAENTVYLRTNSLKPEDTAVYYCNARGEYHSGNEYDYWGQGTQVTVSS ... 19.5
E06 His (VHH, not shown: small tags and cut ends) VHH: QVHLVESGGGLVQAGGSLRLSCAASRRSFSEYAMGWFRQAPGKEREFVAAIGWSGVIEYADSVKGRFTISRDNAKDTVYLQMNSLKPEDTAVYYCAAGLGIRVVSQTPAYWGQGTQVTVSS ... 4.9

Consider the additional binder presented here.
Entry B01 His (VHH, not shown: small tags and cut ends) VHH: QVQLVESGGGLVQAGGSLRLSCEVTRSPMPIDTMAWYRQAPGRQRELVAIISRSGSTNYADSVKGRFTISRNDTKSTMYKSTMYLKMNTLELEDTGVYYCNAVGLWNGAEYWGQGTQVTVSS : reported Kd = ?
5
